These measurements were taken from patent US7973059B2.

measured_target: human Kv1.5 potassium channel alpha subunit (Homo sapiens, UniProt P22460)
Sequence (P22460 whole entry): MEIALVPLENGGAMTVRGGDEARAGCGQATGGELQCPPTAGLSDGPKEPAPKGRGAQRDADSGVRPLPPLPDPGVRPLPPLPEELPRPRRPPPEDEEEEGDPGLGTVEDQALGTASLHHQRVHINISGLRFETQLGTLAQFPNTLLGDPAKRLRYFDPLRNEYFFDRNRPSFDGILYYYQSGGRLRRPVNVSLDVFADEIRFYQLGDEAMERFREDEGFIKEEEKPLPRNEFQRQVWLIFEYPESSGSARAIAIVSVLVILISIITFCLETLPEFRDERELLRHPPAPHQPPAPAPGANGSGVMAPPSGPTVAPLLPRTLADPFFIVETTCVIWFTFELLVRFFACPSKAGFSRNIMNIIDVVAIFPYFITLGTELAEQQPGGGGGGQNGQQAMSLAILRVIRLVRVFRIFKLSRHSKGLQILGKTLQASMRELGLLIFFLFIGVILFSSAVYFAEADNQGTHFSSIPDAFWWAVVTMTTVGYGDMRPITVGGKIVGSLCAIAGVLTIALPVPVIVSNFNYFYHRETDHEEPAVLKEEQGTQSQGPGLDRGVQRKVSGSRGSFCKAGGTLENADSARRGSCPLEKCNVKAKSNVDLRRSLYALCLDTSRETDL
assay_name: High throughput Kv1.5 planar patch clamp assay (Kv1.5 HT-clamp, IonWorks HT)
assay_context: CHO cells stably expressing human Kv1.5; 27th depolarization to +40 mV in 5 Hz train
pIC50: −log10 of the molar value.
Reported pIC50 by item:
experimental_endpoint: pIC50

{"compound": "O[C@H](c1cccnc1-c1cc(Cl)cc(Cl)c1)C(c1cccnc1)c1cccnc1", "measured_target": "human Kv1.5 potassium channel alpha subunit (Homo sapiens, UniProt P22460)", "experimental_value": 5.53}
{"compound": "OC(c1cccnc1-c1cccc(C(F)(F)F)c1)C(c1cccnc1)c1cccnc1 (single isomer, unassigned) [Example 2 Enantiomer A]", "measured_target": "human Kv1.5 potassium channel alpha subunit (Homo sapiens, UniProt P22460)", "experimental_value": 6.54}
{"compound": "O[C@@H](c1cccnc1-c1cc(Cl)cc(Cl)c1)C(c1cccnc1)c1cccnc1", "measured_target": "human Kv1.5 potassium channel alpha subunit (Homo sapiens, UniProt P22460)", "experimental_value": 7.05}
{"compound": "OC(c1cccnc1-c1ccccc1Cl)C(c1cccnc1)c1cccnc1 (racemic) [Example 4 Racemic]", "measured_target": "human Kv1.5 potassium channel alpha subunit (Homo sapiens, UniProt P22460)", "experimental_value": 6.37}
{"compound": "OC(c1cccnc1-c1cccc(Cl)c1Cl)C(c1cccnc1)c1cccnc1 (single isomer, unassigned) [Example 6 Enantiomer B]", "measured_target": "human Kv1.5 potassium channel alpha subunit (Homo sapiens, UniProt P22460)", "experimental_value": 6.63}
{"compound": "OC(c1cccnc1-c1cccc(Cl)c1Cl)C(c1cccnc1)c1cccnc1 (single isomer, unassigned) [Example 6 Enantiomer A]", "measured_target": "human Kv1.5 potassium channel alpha subunit (Homo sapiens, UniProt P22460)", "experimental_value": 5.28}
{"compound": "OC(c1cccnc1-c1cccc(Cl)c1Cl)C(c1cccnc1)c1cccnc1 (racemic) [Example 6 Racemic]", "measured_target": "human Kv1.5 potassium channel alpha subunit (Homo sapiens, UniProt P22460)", "experimental_value": 6.96}
{"compound": "OC(c1cccnc1-c1cccc(C(F)(F)F)c1)C(c1cccnc1)c1cccnc1 (racemic) [Example 2 Racemic]", "measured_target": "human Kv1.5 potassium channel alpha subunit (Homo sapiens, UniProt P22460)", "experimental_value": 6.58}
{"compound": "OC(c1cccnc1-c1cc(Cl)cc(Cl)c1)C(c1cccnc1)c1cccnc1 (racemic) [Example 1 Racemic]", "measured_target": "human Kv1.5 potassium channel alpha subunit (Homo sapiens, UniProt P22460)", "experimental_value": 6.94}
{"compound": "OC(c1cccnc1-c1cc(Cl)cc(Cl)c1)C(c1cccnc1)c1cccnc1F (single isomer, unassigned) [Example 3 Isomer 2, Enantiomer A]", "measured_target": "human Kv1.5 potassium channel alpha subunit (Homo sapiens, UniProt P22460)", "experimental_value": 6.81}
{"compound": "OC(c1cccnc1-c1ccccc1Cl)C(c1cccnc1)c1cccnc1 (single isomer, unassigned) [Example 4 Enantiomer B]", "measured_target": "human Kv1.5 potassium channel alpha subunit (Homo sapiens, UniProt P22460)", "experimental_value": 4.60}
{"compound": "OC(c1cccnc1-c1ccccc1Cl)C(c1cccnc1)c1cccnc1 (single isomer, unassigned) [Example 4 Enantiomer A]", "measured_target": "human Kv1.5 potassium channel alpha subunit (Homo sapiens, UniProt P22460)", "experimental_value": 6.77}
{"compound": "OC(c1cccnc1-c1cc(Cl)ccc1Cl)C(c1cccnc1)c1cccnc1 (single isomer, unassigned) [Example 5 Enantiomer A]", "measured_target": "human Kv1.5 potassium channel alpha subunit (Homo sapiens, UniProt P22460)", "experimental_value": 5.50}
{"compound": "OC(c1cccnc1-c1cc(Cl)ccc1Cl)C(c1cccnc1)c1cccnc1 (single isomer, unassigned) [Example 5 Enantiomer B]", "measured_target": "human Kv1.5 potassium channel alpha subunit (Homo sapiens, UniProt P22460)", "experimental_value": 7.12}
